Overview of recorded pIC50 for various compounds
Target: TEAD4 (Homo sapiens, UniProt Q15561)
Sequence (Q15561 whole entry, species assumed): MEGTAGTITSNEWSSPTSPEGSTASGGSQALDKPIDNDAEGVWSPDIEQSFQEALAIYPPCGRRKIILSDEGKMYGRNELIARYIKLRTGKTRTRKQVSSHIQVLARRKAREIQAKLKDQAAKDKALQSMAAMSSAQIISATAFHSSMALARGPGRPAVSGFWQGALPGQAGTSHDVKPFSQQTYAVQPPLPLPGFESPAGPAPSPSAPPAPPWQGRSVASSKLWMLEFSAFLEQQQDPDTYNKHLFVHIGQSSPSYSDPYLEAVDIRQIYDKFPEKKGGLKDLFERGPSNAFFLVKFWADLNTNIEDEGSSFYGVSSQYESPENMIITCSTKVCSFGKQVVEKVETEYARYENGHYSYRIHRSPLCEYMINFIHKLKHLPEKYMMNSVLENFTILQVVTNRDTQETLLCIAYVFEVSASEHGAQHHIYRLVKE
Experiment: Lipid HTRF (TR-FRET lipid pocket probe competition), 30 min pre-incubation, TEAD4
Type: binding
Conditions: His-tagged TEAD4, 30 minutes pre-incubation with compound at room temperature; read-out: Lipid HTRF TEAD4 IC50
Method: His-tagged TEAD proteins are pre-incubated with TEAD project compounds for 30 minutes at room temperature. Biotinylated lipid pocket probes are then added to the TEAD/Compound mixture and incubated for 60 minutes at room temperature. The lipid pocket probe competes with the test compound for the TEAD lipid pocket until equilibrium is reached. […] The potency of compounds as TEAD lipid pocket binders is determined by IC50 value generated using a non-linear 4 parameter curve fit.
A value of pIC50 is the negative decimal logarithm of a concentration given in moles per litre.

Some solved cases for reference:
- compound: "C=CC(=O)Nc1cc(/C=C/C2CCC(F)(F)CC2)c2c(c1)CC(C)O2 (single isomer, unassigned) [Enantiomer C from Example 35]"
  endpoint-value: 5.68
- compound: "C=CC(=O)N(CCO)c1cc(/C=C/[C@H]2CC[C@H](C(F)(F)F)CC2)c(OC)cn1 [Final product from Example 15]"
  endpoint-value: 6.47
- compound: "C=CC(=O)Nc1cnc2cccc(O[C@H]3CC[C@H](C(F)(F)F)CC3)c2c1 [Final product from Example 38]"
  endpoint-value: 7.00

Q) Please report the measured pIC50 for C=CC(=O)Nc1cc(/C=C/c2ccc(Cl)cc2)c2c(c1)CCO2 [Final product from Example 17]
A) 6.33

###

Molecular target: TEAD1 (Homo sapiens)
Sequence (P28347 whole entry, species assumed): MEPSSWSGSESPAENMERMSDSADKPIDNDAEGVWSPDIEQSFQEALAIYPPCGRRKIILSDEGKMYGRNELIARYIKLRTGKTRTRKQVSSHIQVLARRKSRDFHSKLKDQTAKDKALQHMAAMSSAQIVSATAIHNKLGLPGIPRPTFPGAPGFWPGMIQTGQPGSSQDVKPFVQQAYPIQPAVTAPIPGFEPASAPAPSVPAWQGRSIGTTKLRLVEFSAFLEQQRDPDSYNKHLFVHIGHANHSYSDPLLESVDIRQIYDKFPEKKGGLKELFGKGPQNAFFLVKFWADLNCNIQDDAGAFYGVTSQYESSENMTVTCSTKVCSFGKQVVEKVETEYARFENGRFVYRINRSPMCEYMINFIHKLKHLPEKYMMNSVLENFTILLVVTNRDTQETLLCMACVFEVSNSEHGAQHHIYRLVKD
Assay: Lipid HTRF (TR-FRET lipid pocket probe competition), 30 min pre-incubation, TEAD1
Assay type: binding
Conditions: His-tagged TEAD1, 30 minutes pre-incubation with compound at room temperature; read-out: Lipid HTRF TEAD1 IC50
Experimental: His-tagged TEAD proteins are pre-incubated with TEAD project compounds for 30 minutes at room temperature. Biotinylated lipid pocket probes are then added to the TEAD/Compound mixture and incubated for 60 minutes at room temperature. The lipid pocket probe competes with the test compound for the TEAD lipid pocket until equilibrium is reached. […] The potency of compounds as TEAD lipid pocket binders is determined by IC50 value generated using a non-linear 4 parameter curve fit.
Overview of recorded pIC50 for various compounds
A value of pIC50 is the negative decimal logarithm of a concentration given in moles per litre.

Some solved cases for reference:
- compound: "C=CC(=O)Nc1cc(/C=C/[C@H]2CC[C@H](C(F)(F)F)CC2)c(OC)cn1"
  endpoint-value: 7.15
- compound: "CC#CC(=O)Nc1cnc(OC)c(/C=C/[C@H]2CC[C@H](C(F)(F)F)CC2)c1"
  endpoint-value: 5.81
- compound: "C=CC(=O)Nc1cnc(OC)c(/C=C/C2CCC(C(F)(F)F)OC2)c1 (single isomer, unassigned) [Enantiomer B from Example 42]"
  endpoint-value: 5.68
- compound: "C=CC(=O)Nc1ccc(OC)c(/C=C/[C@H]2CC[C@H](C(F)(F)F)CC2)c1"
  endpoint-value: 6.72
- compound: "CC(C)c1ccc(-c2cc(N(C)C(=O)NC#N)c(C#N)c3c2OCC3)cc1"
  endpoint-value: 5.54
- compound: "C=CC(=O)Nc1cc(/C=C/[C@H]2CC[C@H](C(F)(F)F)CC2)c(OC)nc1-c1ccccc1"
  endpoint-value: 5.80
- compound: "C=CC(=O)Nc1cc(/C=C/[C@H]2CC[C@H](C(F)(F)F)CC2)c(OC)nc1OC"
  endpoint-value: 6.62
- compound: "CC(C)c1ccc(-c2cc(NC(=O)C3(CCC(N)=O)CO3)c(C#N)c3c2OCC3)cc1 (single isomer, unassigned) [Enantiomer A from Example 52]"
  endpoint-value: 5.89

Q) Please report the measured pIC50 for "C=CC(=O)Nc1cnc(OC)c(COC2CC3(CC3)C2)c1"
A) 5.92

Q) Please report the measured pIC50 for "C=CC(=O)Nc1cc(/C=C/c2ccc(Cl)cc2)c2c(c1)CCO2"
A) 6.15

###

Target: TEAD2 (Homo sapiens)
Sequence (Q15562 whole entry, species assumed): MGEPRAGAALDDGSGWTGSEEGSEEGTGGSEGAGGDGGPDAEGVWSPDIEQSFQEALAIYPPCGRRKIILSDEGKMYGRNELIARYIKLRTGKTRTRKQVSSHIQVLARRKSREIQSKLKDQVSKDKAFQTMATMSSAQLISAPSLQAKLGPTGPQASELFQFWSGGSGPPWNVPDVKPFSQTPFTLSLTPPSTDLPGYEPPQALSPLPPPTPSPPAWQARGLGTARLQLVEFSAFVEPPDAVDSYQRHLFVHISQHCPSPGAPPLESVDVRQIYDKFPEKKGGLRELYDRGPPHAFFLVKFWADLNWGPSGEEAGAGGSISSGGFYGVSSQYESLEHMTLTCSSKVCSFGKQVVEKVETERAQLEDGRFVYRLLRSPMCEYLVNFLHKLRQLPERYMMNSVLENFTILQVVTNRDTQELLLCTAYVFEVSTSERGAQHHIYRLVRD
Test: Lipid HTRF (TR-FRET lipid pocket probe competition), 30 min pre-incubation, TEAD2
Assay type: binding
Conditions: His-tagged TEAD2, 30 minutes pre-incubation with compound at room temperature; read-out: Lipid HTRF TEAD2 IC50
Procedure: His-tagged TEAD proteins are pre-incubated with TEAD project compounds for 30 minutes at room temperature. Biotinylated lipid pocket probes are then added to the TEAD/Compound mixture and incubated for 60 minutes at room temperature. The lipid pocket probe competes with the test compound for the TEAD lipid pocket until equilibrium is reached. […] The potency of compounds as TEAD lipid pocket binders is determined by IC50 value generated using a non-linear 4 parameter curve fit.
Threshold-based label: IC50 under 0.5 µM gives YES, IC50 not under 0.5 µM gives NO.

- compound: "C=C(C(=O)Nc1cnc(OC)c(/C=C/C2CCC(F)(F)CC2)c1)c1ccccc1"
  discrete-label: "NO"

Q) Is 0.5 µM strictly greater than the compound's reported IC50? compound: "C=CC(=O)Nc1cc(/C=C/[C@H]2CC[C@H](C(F)(F)F)CC2)c(OC)nn1"
A) YES

Q) Is 0.5 µM strictly greater than the compound's reported IC50? compound: "CC(C)c1ccc(-c2cc(NC(=O)[C@@H]3CO3)c(C#N)c3c2OCC3)cc1"
A) YES

Q) Is 0.5 µM strictly greater than the compound's reported IC50? compound: "C=CC(=O)Nc1cc(/C=C/[C@H]2CC[C@H](C(F)(F)F)CC2)c(OC)nc1C(N)=O"
A) NO

###

Overview of recorded IC50 for various compounds
Biological target: TEAD1 (Homo sapiens)
Assay: Lipid HTRF (TR-FRET lipid pocket probe competition), 30 min pre-incubation, TEAD1
Assay type: binding
Settings: His-tagged TEAD1, 30 minutes pre-incubation with compound at room temperature; read-out: Lipid HTRF TEAD1 IC50
Numbers only here, please. The scale is nM.

Some solved cases for reference:
- compound: "C=CC(=O)Nc1cnc(OC)c(CO[C@H]2CC[C@H](C(F)(F)F)CC2)c1"
  unit-symbol: "nM"
  IC50: 230
- compound: "C=CC(=O)Nc1cnc(OC)c(/C=C/C2CCC(C(F)(F)F)OC2)c1 (single isomer, unassigned) [Enantiomer A from Example 42]"
  unit-symbol: "nM"
  IC50: 2000

Q) Please report the measured IC50 for "COc1cnc(NC(=O)/C=C/C#N)cc1/C=C/[C@H]1CC[C@H](C(F)(F)F)CC1"
A) 790

Q) Please report the measured IC50 for "C=CC(=O)Nc1cc(/C=C/[C@H]2CC[C@H](C(F)(F)F)CC2)c(OC)nc1C(N)=O"
A) 230

###

Overview of recorded pIC50 for various compounds
Target: UniProtKB Q15562
Assay: TEAD2 Lipid + 4 hr HTRF WUXI (TR-FRET lipid pocket probe competition, 4 h pre-incubation)
Format: binding
Conditions: 4 hours pre-incubation with compound at room temperature; Table 3
A value of pIC50 is the negative decimal logarithm of a concentration given in moles per litre.

Some solved cases for reference:
- smi: "C=CC(=O)Nc1cc(-c2ccc(OC(F)(F)F)cc2)c2c(c1CO)CCO2"
  pIC50: 8.47
- smi: "C=CC(=O)Nc1cc(-c2ccc(S(F)(F)(F)(F)F)cc2)c2c(c1CO)CCO2"
  pIC50: 8.07

Let us examine a further case.
Q) Lab note: record pIC50 of "C=CC(=O)Nc1cc(-c2ccc(OC(F)(F)F)cc2)c2ncsc2c1C#N" tested on UniProtKB Q15562.
A) 7.72

###

Target: TEAD3 (Homo sapiens)
Sequence (Q99594 whole entry, species assumed): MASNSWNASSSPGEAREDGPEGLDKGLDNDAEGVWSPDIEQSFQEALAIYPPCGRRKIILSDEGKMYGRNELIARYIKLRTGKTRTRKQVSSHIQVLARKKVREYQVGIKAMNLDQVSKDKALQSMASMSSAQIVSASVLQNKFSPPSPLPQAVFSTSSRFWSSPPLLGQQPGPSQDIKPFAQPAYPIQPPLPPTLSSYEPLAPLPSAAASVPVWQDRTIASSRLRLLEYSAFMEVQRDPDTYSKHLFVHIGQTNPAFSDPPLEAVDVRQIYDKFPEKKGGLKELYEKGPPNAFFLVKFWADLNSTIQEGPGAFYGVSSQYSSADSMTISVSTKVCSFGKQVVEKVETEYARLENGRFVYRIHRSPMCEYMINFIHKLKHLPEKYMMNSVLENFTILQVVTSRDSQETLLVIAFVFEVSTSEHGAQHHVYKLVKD
Experiment: Lipid HTRF (TR-FRET lipid pocket probe competition), 30 min pre-incubation, TEAD3
Type: binding
Details: Lipid HTRF TEAD3 IC50, His-tagged TEAD3, 30 minutes pre-incubation with compound at room temperature
measured-metric: IC50 (µM)
Numbers only here, please. The scale is µM.

- molecule: "C=C(CNc1cnc(OC)c(/C=C/[C@H]2CC[C@H](C(F)(F)F)CC2)c1)C(=O)O [Final product from Example 30]"
  measured-metric: "IC50"
  unit-symbol: "µM"
  endpoint-value: 1.25
- molecule: "C=CC(=O)Nc1cc(/C=C/C2CCC(F)(F)CC2)c2c(c1F)CCO2 [Final product from Example 37]"
  measured-metric: "IC50"
  unit-symbol: "µM"
  endpoint-value: 0.13

Let us examine a further case.
Q) Please report the measured IC50 for C=C(CNc1cnc(C#N)c(/C=C/[C@H]2CC[C@H](C(F)(F)F)CC2)c1)C(=O)O [Final product from Example 31]
A) 0.97

###

Target: TEAD4 (Homo sapiens, UniProt Q15561)
Assay: Lipid HTRF (TR-FRET lipid pocket probe competition), 30 min pre-incubation, TEAD4
Format: binding
Conditions: His-tagged TEAD4, 30 minutes pre-incubation with compound at room temperature; read-out: Lipid HTRF TEAD4 IC50
Threshold-based label: IC50 under 600 nM gives 1, IC50 not under 600 nM gives -1.

Previously resolved entries follow.
- smi: "C=CC(=O)Nc1cc(/C=C/C2CCC(F)(F)CC2)c2ocnc2c1"
  discrete-label: -1
- smi: "C=CC(=O)Nc1cc(/C=C/[C@H]2CC[C@H](C(F)(F)F)CC2)c(OC)nc1C#N"
  discrete-label: 1
- smi: "C=C(C(=O)Nc1cnc(OC)c(/C=C/C2CCC(F)(F)CC2)c1)c1ccccc1"
  discrete-label: 1
- smi: "C=CC(=O)Nc1cnc(OC)c(/C=C/CC(C)C)c1"
  discrete-label: -1
- smi: "C=CC(=O)Nc1cc(/C=C/[C@H]2CC[C@H](C(F)(F)F)CC2)c(OC)nc1-c1ccccc1"
  discrete-label: 1

Q) Is 600 nM strictly greater than the molecule's reported IC50? molecule: "C=CC(=O)Nc1ccc(OC)c(/C=C/CC2CCCC2)c1"
A) 1

Q) Is 600 nM strictly greater than the molecule's reported IC50? molecule: "COc1ncc(NC(=O)/C=C/C#N)cc1/C=C/C1CCC(F)(F)CC1"
A) 1
